Entries and their half-life at 0.25 μM
Experiment: Metabolic stability in human liver microsomes
Type: in vitro ADME
Conditions: pH 7.4, NADPH, 37° C.
readout_name: half-life at 0.25 μM

{"compound": "Cl.[2H]C1([2H])Oc2ccc(C[C@@H](CC)NC)cc2O1", "data_value": "37.7 min"}
{"compound": "Cl.[2H]C([2H])([2H])N[C@H](CC)Cc1ccc2c(c1)OCO2", "data_value": "96.8 min"}
{"compound": "Cl.[2H]C([2H])([2H])NC(CC)Cc1ccc2c(c1)OC([2H])([2H])O2 (racemic)", "data_value": "42 min"}
{"compound": "Cl.[2H]C([2H])([2H])N[C@@H](CC)Cc1ccc2c(c1)OCO2", "data_value": "173 min"}
{"compound": "Cl.[2H]C1([2H])Oc2ccc(C[C@H](CC)NC)cc2O1", "data_value": "52 min"}
